test_system: human μ opiate receptor (Homo sapiens)
Construct: purchased PerkinElmer Life Sciences, Zaventem, Belgium RB-HOM; host or cells: CHO-K1 cells (membrane preparation)
Sequence (P35372 whole entry): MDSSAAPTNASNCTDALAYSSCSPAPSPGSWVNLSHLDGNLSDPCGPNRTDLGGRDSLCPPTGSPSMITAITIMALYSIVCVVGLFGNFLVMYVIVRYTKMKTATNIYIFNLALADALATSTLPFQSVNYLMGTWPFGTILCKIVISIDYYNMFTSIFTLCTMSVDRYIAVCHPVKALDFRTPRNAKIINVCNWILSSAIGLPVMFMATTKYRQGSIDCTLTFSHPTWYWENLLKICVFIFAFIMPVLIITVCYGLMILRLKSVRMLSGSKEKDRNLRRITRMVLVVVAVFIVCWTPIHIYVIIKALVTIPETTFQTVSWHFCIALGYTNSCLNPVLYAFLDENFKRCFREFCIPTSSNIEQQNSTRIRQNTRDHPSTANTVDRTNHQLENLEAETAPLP
assay_procedure: Affinity for the human μ opiate receptor ([3H]-naloxone displacement, CHO-K1 receptor membrane preparation, SPA)
Type: binding
condition: 1.5 h, Table 3, to be read in the same way as Table 1; test concentration 1 μM; read-out: μ

| compound | test_system | inhibition at 1 µM, % |
| --- | --- | --- |
| COc1cc(C)c(S(=O)(=O)N2CCCCC2COCC(=O)N2CCC(C(c3ccccc3)N3CCN(C)CC3)CC2)c(C)c1 (centres unmarked) [Example 807] | human μ opiate receptor (Homo sapiens) | 11 |
| CN(CCOCC(=O)NC1CCC(C(CCc2ccccc2)N2CCOCC2)CC1)S(=O)(=O)c1c(Cl)cccc1Cl (centres unmarked) [Example 664] | human μ opiate receptor (Homo sapiens) | 5 |
| O=C(COCC1CCCN1S(=O)(=O)c1c(Cl)cc(Cl)cc1Cl)NC1CCC(C(c2ccccc2)N2CCCC2)CC1 (centres unmarked) [Example 650] | human μ opiate receptor (Homo sapiens) | 92 |
| COc1cc(C)c(S(=O)(=O)N(C)CCOCC(=O)NC2CCC(C(c3ccccc3)N3CCOCC3)CC2)c(C)c1 (centres unmarked) [Example 681] | human μ opiate receptor (Homo sapiens) | 10 |
| COc1cc(C)c(S(=O)(=O)N(C)CCOCC(=O)NCC2CCC(C(c3ccccc3)N3CCOCC3)CC2)c(C)c1 (centres unmarked) [Example 718] | human μ opiate receptor (Homo sapiens) | 4 |
| COc1cc(C)c(S(=O)(=O)N2CCCC(OCC(=O)NC3CCC(C(c4ccccc4)N4CCCC4)CC3)C2)c(C)c1 (centres unmarked) [Example 647] | human μ opiate receptor (Homo sapiens) | 49 |
| COc1cc(C)c(S(=O)(=O)N2CCCC(OCC(=O)NC3CCC(C(c4ccccc4)N4CCN(C)CC4)CC3)C2)c(C)c1 (centres unmarked) [Example 708] | human μ opiate receptor (Homo sapiens) | 29 |
| CN(CCOCC(=O)NC1CCC(C(c2ccccc2)N2CCCC2)CC1)S(=O)(=O)c1ccc(Cl)cc1Cl (centres unmarked) [Example 627] | human μ opiate receptor (Homo sapiens) | 69 |
| CN(CCOCC(=O)NC1CCC(C(CCc2ccccc2)N2CCCCC2)CC1)S(=O)(=O)c1c(Cl)cccc1Cl (centres unmarked) [Example 665] | human μ opiate receptor (Homo sapiens) | 18 |
| CN(CCOCC(=O)NCC1CCC(C(CCc2ccccc2)N2CCOCC2)CC1)S(=O)(=O)c1ccc(Cl)cc1Cl (centres unmarked) [Example 716] | human μ opiate receptor (Homo sapiens) | 13 |
| CN(CCOCC(=O)NC1CCC(C(c2ccccc2)N2CCCC2)CC1)S(=O)(=O)c1c(Cl)cccc1Cl (centres unmarked) [Example 634] | human μ opiate receptor (Homo sapiens) | 68 |
| COc1cc(C)c(S(=O)(=O)N2CCCC2COCC(=O)NCC2CCC(C(c3ccccc3)N3CCOCC3)CC2)c(C)c1 (centres unmarked) [Example 709] | human μ opiate receptor (Homo sapiens) | 8 |
| COc1cc(C)c(S(=O)(=O)N2CCCC2COCC(=O)NCC2CCC(C(CCc3ccccc3)N3CCCC3)CC2)c(C)c1 (centres unmarked) [Example 750] | human μ opiate receptor (Homo sapiens) | 52 |
| O=C(COCC1CCCCN1S(=O)(=O)c1c(Cl)cc(Cl)cc1Cl)NCC1CCC(C(CCc2ccccc2)N2CCOCC2)CC1 (centres unmarked) [Example 754] | human μ opiate receptor (Homo sapiens) | 2 |

----------
test_system: bradykinin 1 receptor (B1R) of the rat (Rattus norvegicus, UniProt P97583)
Construct: expressed in transfected cells; host or cells: CHO K1 cells
Sequence (P97583 whole entry): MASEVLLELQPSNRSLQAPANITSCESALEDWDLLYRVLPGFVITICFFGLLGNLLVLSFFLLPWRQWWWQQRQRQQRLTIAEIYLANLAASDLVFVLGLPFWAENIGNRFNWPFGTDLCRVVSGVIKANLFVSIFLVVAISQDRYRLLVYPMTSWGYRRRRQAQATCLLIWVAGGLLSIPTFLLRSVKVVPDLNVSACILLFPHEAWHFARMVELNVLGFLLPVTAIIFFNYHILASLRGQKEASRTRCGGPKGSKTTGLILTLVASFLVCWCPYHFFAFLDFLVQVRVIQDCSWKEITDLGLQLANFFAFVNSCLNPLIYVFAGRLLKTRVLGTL
assay_procedure: Functional investigation on the rat bradykinin 1 receptor (B1R), Ca2+ FLIPR assay in CHO K1 rB1R cells
Type: cell-based
condition: B1R antagonism rat; test substance 10 μM; Ca2+ FLIPR, CHO K1 rB1R cells

| molecule | test_system | B1R Ant. r [10 μM] % Inhibition [%] |
| --- | --- | --- |
| CN(C)C(c1ccc(Cl)cc1)C1CCC(CNC(=O)COCCN(C)S(=O)(=O)c2c(Cl)cccc2Cl)CC1 (stereo not shown) | bradykinin 1 receptor (B1R) of the rat (Rattus norvegicus, UniProt P97583) | 52 |
| COc1cc(C)c(S(=O)(=O)N2CCC(OCC(=O)NCC3CCC(C(CCc4ccccc4)N(C)C)CC3)C2)c(C)c1C (stereo not shown) | bradykinin 1 receptor (B1R) of the rat (Rattus norvegicus, UniProt P97583) | 37 |
| COc1ccc(S(=O)(=O)N2CCCC2COCC(=O)NCCC2CCC(C(c3cccc(F)c3)N(C)C)CC2)cc1 (stereo not shown) | bradykinin 1 receptor (B1R) of the rat (Rattus norvegicus, UniProt P97583) | 47 |
| COc1cc(C)c(S(=O)(=O)N2CCCC(OCC(=O)NCC3CCC(C(c4ccc(Cl)cc4)N(C)C)CC3)C2)c(C)c1C (stereo not shown) | bradykinin 1 receptor (B1R) of the rat (Rattus norvegicus, UniProt P97583) | −7 |
| COc1ccc(S(=O)(=O)N2CCCC2COCC(=O)NCC2CCC(C(c3ccc(F)cc3)N(C)C)CC2)cc1 (stereo not shown) | bradykinin 1 receptor (B1R) of the rat (Rattus norvegicus, UniProt P97583) | 17 |
| COc1cc(C)c(S(=O)(=O)N2CCCC(OCC(=O)NC3CCC(C(c4cccc(F)c4)N(C)C)CC3)C2)c(C)c1C (stereo not shown) | bradykinin 1 receptor (B1R) of the rat (Rattus norvegicus, UniProt P97583) | 7 |
| CCN(CCOCC(=O)NC1CCC(C(c2ccc(F)cc2)N(C)C)CC1)S(=O)(=O)c1c(C)cc(OC)c(C)c1C (stereo not shown) | bradykinin 1 receptor (B1R) of the rat (Rattus norvegicus, UniProt P97583) | 68 |
| CN(C)C(c1ccc(Cl)cc1)C1CCC(CCNC(=O)COCCN(C)S(=O)(=O)c2cccc(C(F)(F)F)c2)CC1 (stereo not shown) | bradykinin 1 receptor (B1R) of the rat (Rattus norvegicus, UniProt P97583) | 13 |
| CN(C)C(CCc1ccccc1)C1CCC(CNC(=O)COCCN(C)S(=O)(=O)c2c(Cl)cc(Cl)cc2Cl)CC1 (stereo not shown) | bradykinin 1 receptor (B1R) of the rat (Rattus norvegicus, UniProt P97583) | 54 |
| CN(C)C(c1ccc(F)cc1)C1CCC(CNC(=O)COC2CCN(S(=O)(=O)c3ccccc3)C2)CC1 (stereo not shown) | bradykinin 1 receptor (B1R) of the rat (Rattus norvegicus, UniProt P97583) | −14 |
| CN(C)C(c1ccc(F)cc1)C1CCC(NC(=O)COC2CCN(S(=O)(=O)c3cccc(C(F)(F)F)c3)C2)CC1 (stereo not shown) | bradykinin 1 receptor (B1R) of the rat (Rattus norvegicus, UniProt P97583) | 16 |
| Cc1ccc(S(=O)(=O)N2CCC(OCC(=O)NCC3CCC(C(c4ccc(F)cc4)N(C)C)CC3)C2)cc1 (stereo not shown) | bradykinin 1 receptor (B1R) of the rat (Rattus norvegicus, UniProt P97583) | 3 |
| CN(C)C(c1ccc(Cl)cc1)C1CCC(CNC(=O)COC2CCCN(S(=O)(=O)c3ccccc3)C2)CC1 (stereo not shown) | bradykinin 1 receptor (B1R) of the rat (Rattus norvegicus, UniProt P97583) | 18 |
| COc1cc(C)c(S(=O)(=O)N2CCC(OCC(=O)NCCC3CCC(C(c4cccc(F)c4)N(C)C)CC3)C2)c(C)c1C (stereo not shown) | bradykinin 1 receptor (B1R) of the rat (Rattus norvegicus, UniProt P97583) | 18 |
| COc1cc(C)c(S(=O)(=O)N(C)CCOCC(=O)NCC2CCC(C(c3cccc(F)c3)N(C)C)CC2)c(C)c1 (stereo not shown) | bradykinin 1 receptor (B1R) of the rat (Rattus norvegicus, UniProt P97583) | 102 |
| CN(C)C(c1cccc(F)c1)C1CCC(CCNC(=O)COC2CCN(S(=O)(=O)c3ccc(Cl)cc3)C2)CC1 (stereo not shown) | bradykinin 1 receptor (B1R) of the rat (Rattus norvegicus, UniProt P97583) | 8 |
| CN(C)C(c1ccc(F)cc1)C1CCC(CCNC(=O)COC2CCCCC2N(C)S(=O)(=O)c2ccc(Cl)c(Cl)c2)CC1 (stereo not shown) | bradykinin 1 receptor (B1R) of the rat (Rattus norvegicus, UniProt P97583) | −5 |
| CN(C)C(c1ccc(F)cc1)C1CCC(CNC(=O)COC2CCCCC2N(C)S(=O)(=O)c2ccc(Cl)c(Cl)c2)CC1 (stereo not shown) | bradykinin 1 receptor (B1R) of the rat (Rattus norvegicus, UniProt P97583) | −4 |
| CN(C)C(c1cccc(F)c1)C1CCC(CNC(=O)COCCN(C)S(=O)(=O)c2ccc(F)cc2)CC1 (stereo not shown) | bradykinin 1 receptor (B1R) of the rat (Rattus norvegicus, UniProt P97583) | 8 |
| COc1ccc(S(=O)(=O)N2CCC(OCC(=O)NC3CCC(C(c4ccc(F)cc4)N(C)C)CC3)C2)cc1OC (stereo not shown) | bradykinin 1 receptor (B1R) of the rat (Rattus norvegicus, UniProt P97583) | 38 |
| CN(C)C(c1ccc(F)cc1)C1CCC(CCNC(=O)COC2CCN(S(=O)(=O)c3ccccc3)C2)CC1 (stereo not shown) | bradykinin 1 receptor (B1R) of the rat (Rattus norvegicus, UniProt P97583) | 27 |
| COc1cc(C)c(S(=O)(=O)N(CCOCC(=O)NCCC2CCC(C(c3ccc(Cl)cc3)N(C)C)CC2)Cc2ccccc2)c(C)c1C (stereo not shown) | bradykinin 1 receptor (B1R) of the rat (Rattus norvegicus, UniProt P97583) | 3 |
| COc1cc(C)c(S(=O)(=O)N2CCC(OCC(=O)NCC3CCC(C(c4cccc(F)c4)N(C)C)CC3)CC2)c(C)c1C (stereo not shown) | bradykinin 1 receptor (B1R) of the rat (Rattus norvegicus, UniProt P97583) | −1 |
| COc1cc(C)c(S(=O)(=O)N2CCC(OCC(=O)NCC3CCC(C(c4cccc(F)c4)N(C)C)CC3)C2)c(C)c1C (stereo not shown) | bradykinin 1 receptor (B1R) of the rat (Rattus norvegicus, UniProt P97583) | 4 |
| CN(C)C(c1ccc(Cl)cc1)C1CCC(CNC(=O)COCC2CCCN(S(=O)(=O)c3ccccc3)C2)CC1 (stereo not shown) | bradykinin 1 receptor (B1R) of the rat (Rattus norvegicus, UniProt P97583) | 32 |
| CN(C)C(CCc1ccccc1)C1CCC(CNC(=O)COC2CCN(S(=O)(=O)c3ccccc3)C2)CC1 (stereo not shown) | bradykinin 1 receptor (B1R) of the rat (Rattus norvegicus, UniProt P97583) | 14 |
| CN(C)C(c1cccc(F)c1)C1CCC(CCNC(=O)COCC2CCCN(S(=O)(=O)c3ccccc3)C2)CC1 (stereo not shown) | bradykinin 1 receptor (B1R) of the rat (Rattus norvegicus, UniProt P97583) | 44 |
| Cc1cc(C)c(S(=O)(=O)N2CCC(OCC(=O)NCCC3CCC(C(c4ccc(F)cc4)N(C)C)CC3)C2)c(C)c1 (stereo not shown) | bradykinin 1 receptor (B1R) of the rat (Rattus norvegicus, UniProt P97583) | 38 |
